Molecular target: Recombinant TDO (Homo sapiens, UniProt P48775)
Construct: His tag (C); made in house; host or cells: E. coli
Sequence (P48775 whole entry): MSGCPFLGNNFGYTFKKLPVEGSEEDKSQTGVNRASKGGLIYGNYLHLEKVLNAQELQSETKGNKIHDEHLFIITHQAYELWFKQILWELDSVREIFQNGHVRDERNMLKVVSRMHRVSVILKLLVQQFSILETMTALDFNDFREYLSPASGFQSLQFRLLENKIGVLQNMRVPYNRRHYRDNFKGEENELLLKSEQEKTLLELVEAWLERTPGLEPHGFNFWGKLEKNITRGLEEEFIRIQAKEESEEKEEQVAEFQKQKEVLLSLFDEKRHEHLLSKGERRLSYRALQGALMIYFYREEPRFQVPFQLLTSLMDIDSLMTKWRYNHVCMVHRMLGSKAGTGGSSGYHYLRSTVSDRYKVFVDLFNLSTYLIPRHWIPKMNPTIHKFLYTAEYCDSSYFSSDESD
Assay: TDO enzymatic assay
Assay type: biochemical
Conditions: Table 1, 5-substituted imidazo[1,5-a]pyridines; 100 nM TDO, 0.5 mM L-tryptophan; read-out: Enzyme IC50 (nM) TDO
Experimental: Recombinant TDO was overexpressed and purified from E. coli cells with a C-terminal His tag. TDO enzymatic assay was performed using the same methodology as IDO1 enzymatic assay except that 100 nM TDO and 0.5 mM L-tryptophan (Km concentration) were used in the TDO assay.
REPORTED_METRIC: IC50 (nM)
Give just the numeric value; nM need not be written.

Q. Can you share its IC50? I mean this compound: OC(c1cc(Cl)cc2cncn12)C1CCCCC1 (stereo not drawn)
A. 68

Q. Can you share its IC50? I mean this compound: OC(CC1CCCCC1)c1c(Cl)c(Cl)cc2cncn12 (single isomer, unassigned) [Example A144b]
A. 240

Q. Can you share its IC50? I mean this compound: OC(c1c(Cl)c(Br)cc2cncn12)C1CC1 (stereo not drawn)
A. 200

Q. Can you share its IC50? I mean this compound: OC(c1c(C2CC2)ccc2cncn12)C1CCCC1 (stereo not drawn)
A. 6600

Q. Can you share its IC50? I mean this compound: Cc1noc(C)c1-c1ccc2cncn2c1C(O)C1CCCCC1 (stereo not drawn)
A. 17000

Q. Can you share its IC50? I mean this compound: OC(CC1CCCCC1)c1c(Br)ccc2cncn12 (single isomer, unassigned) [Example A119a]
A. 14000

Q. Can you share its IC50? I mean this compound: OC(CCC1CCCCC1)c1c(Cl)ccc2cncn12 (stereo not drawn)
A. 1100

Q. Can you share its IC50? I mean this compound: OC(CC1CCCCC1)c1c(I)ccc2cncn12 (single isomer, unassigned) [Example A124b]
A. 95000

Q. Can you share its IC50? I mean this compound: Cc1ccc2cncn2c1C(O)C1CCCCC1 (stereo not drawn)
A. 430

----------
Molecular target: cellular IDO1 in HeLa cells (Homo sapiens)
Construct: endogenous in cells; host or cells: HeLa cells (American Type Tissue Culture Collection), induced with human recombinant IFN-γ
Experiment: HeLa cell-based IDO1 Kyn (kynurenine) production assay
Conditions: Table 1, 5-substituted imidazo[1,5-a]pyridines, IFN-γ 100 ng/mL, 48 hours
REPORTED_METRIC: pEC50
Scale explanation: pEC50 corresponds to minus log10 of a concentration expressed in moles per litre.

Q. Can you share its pEC50? I mean this compound: O=C(NC1CCCC(C(O)c2cc(Cl)cc3cncn23)C1)c1cccc(Cl)c1 (centres unmarked) [Example A105]
A. 5.77

Q. Can you share its pEC50? I mean this compound: OC(CC1CCCCC1)c1cc(Cl)cc2cncn12 (single isomer, unassigned) [Example A102a]
A. 6.46

Q. Can you share its pEC50? I mean this compound: OC(c1c(C2CC2)ccc2cncn12)C1CCCC1 (centres unmarked) [Example A138]
A. 6.38

Q. Can you share its pEC50? I mean this compound: OC(c1cc(Cl)c(Cl)c2cncn12)C1CCCCC1 (centres unmarked) [Example A146]
A. 5.90

----------
Molecular target: cellular IDO1 in HeLa cells (Homo sapiens, UniProt P14902)
Construct: endogenous in cells; host or cells: HeLa cells (American Type Tissue Culture Collection), induced with human recombinant IFN-γ
Sequence (P14902 whole entry): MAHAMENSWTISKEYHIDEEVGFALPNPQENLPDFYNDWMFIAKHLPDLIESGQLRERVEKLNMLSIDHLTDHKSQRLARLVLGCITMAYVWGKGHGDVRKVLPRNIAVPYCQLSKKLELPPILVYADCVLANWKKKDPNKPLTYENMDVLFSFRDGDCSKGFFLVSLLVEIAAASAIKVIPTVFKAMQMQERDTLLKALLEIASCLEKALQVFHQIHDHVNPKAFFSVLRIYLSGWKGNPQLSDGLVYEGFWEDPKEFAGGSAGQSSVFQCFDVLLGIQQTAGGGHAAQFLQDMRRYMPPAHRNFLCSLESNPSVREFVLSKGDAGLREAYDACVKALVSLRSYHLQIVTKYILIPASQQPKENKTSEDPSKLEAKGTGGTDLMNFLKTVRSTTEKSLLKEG
Experiment: HeLa cell-based IDO1 Kyn (kynurenine) production assay
Details: Table 1, 5-substituted imidazo[1,5-a]pyridines, IFN-γ 100 ng/mL, 48 hours
I'd appreciate it if you could supply EC50 values for the items below.

Q. Form: Entry = FC(c1cc(Cl)cc2cncn12)C1CCC(F)(F)CC1 (centres unmarked) | System = cellular IDO1 in HeLa cells (Homo sapiens, UniProt P14902) | EC50 = ____
A. > 10 µM

Q. Form: Entry = OC(c1c(Br)ccc2cncn12)C1CCCCC1 (single isomer, unassigned) [Example A118b] | System = cellular IDO1 in HeLa cells (Homo sapiens, UniProt P14902) | EC50 = ____
A. > 10 µM

Q. Form: Entry = OC(c1c(C2CCCC2)ccc2cncn12)C1CCCCC1 (centres unmarked) | System = cellular IDO1 in HeLa cells (Homo sapiens, UniProt P14902) | EC50 = ____
A. 0.933 µM

Q. Form: Entry = OC1CCC(C(O)c2c(C3CC3)ccc3cncn23)CC1 (centres unmarked) [Example A142] | System = cellular IDO1 in HeLa cells (Homo sapiens, UniProt P14902) | EC50 = ____
A. 0.574 µM

Q. Form: Entry = OC(c1c(C2=CCCC2)ccc2cncn12)C1CCCCC1 (centres unmarked) | System = cellular IDO1 in HeLa cells (Homo sapiens, UniProt P14902) | EC50 = ____
A. 2.68 µM
